Target: Androgen receptor (Homo sapiens, UniProt P10275)
Sequence (P10275 whole entry): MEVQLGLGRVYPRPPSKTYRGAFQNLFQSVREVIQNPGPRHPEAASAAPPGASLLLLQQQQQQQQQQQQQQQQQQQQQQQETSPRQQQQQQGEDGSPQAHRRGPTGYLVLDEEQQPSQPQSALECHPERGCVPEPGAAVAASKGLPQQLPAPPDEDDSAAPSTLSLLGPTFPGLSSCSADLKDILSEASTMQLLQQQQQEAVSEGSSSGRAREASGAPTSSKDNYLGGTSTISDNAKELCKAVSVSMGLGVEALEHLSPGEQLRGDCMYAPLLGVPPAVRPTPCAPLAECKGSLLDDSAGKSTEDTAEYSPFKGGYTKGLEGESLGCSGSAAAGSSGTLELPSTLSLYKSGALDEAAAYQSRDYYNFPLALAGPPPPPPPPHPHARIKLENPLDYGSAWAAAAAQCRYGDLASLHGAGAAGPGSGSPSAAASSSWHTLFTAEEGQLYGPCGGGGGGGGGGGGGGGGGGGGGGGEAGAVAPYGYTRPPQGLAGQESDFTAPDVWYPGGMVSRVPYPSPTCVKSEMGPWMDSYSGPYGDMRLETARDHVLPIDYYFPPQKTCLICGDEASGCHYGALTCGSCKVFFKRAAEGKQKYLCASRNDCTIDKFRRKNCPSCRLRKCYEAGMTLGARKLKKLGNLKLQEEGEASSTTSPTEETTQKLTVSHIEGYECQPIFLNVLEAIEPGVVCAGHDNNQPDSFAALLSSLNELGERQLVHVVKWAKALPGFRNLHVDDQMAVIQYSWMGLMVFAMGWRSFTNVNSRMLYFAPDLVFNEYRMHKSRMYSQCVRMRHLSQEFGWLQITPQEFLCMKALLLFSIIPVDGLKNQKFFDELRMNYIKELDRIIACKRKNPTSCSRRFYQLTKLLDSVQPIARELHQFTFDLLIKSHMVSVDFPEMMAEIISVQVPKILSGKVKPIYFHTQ
Assay: Antagonist activity at AR in human MDA-kb2 cells co-transfected with MMTV-luc assessed as decrease in DHT-induced luciferase activity by reporter gene assay
Type: functional, cell-based
Conditions: read-out: IC50
MEASUREMENT_LABEL: IC50 (µM)
Answers are plain numbers, in µM.

• CC(=O)Cc1ccc(O)cc1 = 420

Now take the following molecule into account.
**Query** Specify measured IC50 for COc1cc(CCC(C)=O)ccc1O .
**Result** 153
